# AUC at 24 h annotations
# PROTOCOL: AUC in BALBc mouse at 30 mg/kg, po measured for 24 hrs by LC-MS/MS analysis
# Assay type: ADME, organism-based
# SETTINGS: in vivo
Answer with the number, then the unit.

Cc1c(N2CCN(C)[C@@H](C)C2)ccc2c3c(c(=O)oc12)CN(C(=O)c1ccc(NS(C)(=O)=O)c(OC(F)(F)F)c1)CC3 : 264 µg·h/mL

Q: # lookup: AUC at 24 h of Cc1c(N2CCN(C)CC2)ccc2c3c(c(=O)oc12)CN(C(=O)c1ccc(NS(C)(=O)=O)c(Cl)c1)CC3
A: 79.2 µg·h/mL
